Source listed as paper PMC4666645.

# EXPERIMENTAL SYSTEM: Hco-L-AChR-2 (Hco-UNC-38, Hco-UNC-63, Hco-UNC-29.1) (Haemonchus contortus, UniProt D6MYE9+D6MYF3+D6MYF4)
# Sequence (D6MYF3 20-512): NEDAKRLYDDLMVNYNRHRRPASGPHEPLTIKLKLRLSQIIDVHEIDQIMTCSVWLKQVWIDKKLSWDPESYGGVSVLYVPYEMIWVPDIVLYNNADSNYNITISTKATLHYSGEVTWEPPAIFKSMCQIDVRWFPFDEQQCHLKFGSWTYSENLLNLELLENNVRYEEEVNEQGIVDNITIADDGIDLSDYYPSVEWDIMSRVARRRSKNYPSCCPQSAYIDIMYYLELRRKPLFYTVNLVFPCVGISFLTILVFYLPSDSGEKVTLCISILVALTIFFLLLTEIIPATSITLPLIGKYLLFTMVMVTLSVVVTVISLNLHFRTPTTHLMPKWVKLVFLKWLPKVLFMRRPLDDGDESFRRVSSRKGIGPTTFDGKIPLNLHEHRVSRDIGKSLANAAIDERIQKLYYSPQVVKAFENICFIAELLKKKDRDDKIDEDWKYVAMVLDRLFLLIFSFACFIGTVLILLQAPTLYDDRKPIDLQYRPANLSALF
# Sequence (D6MYF4 22-504): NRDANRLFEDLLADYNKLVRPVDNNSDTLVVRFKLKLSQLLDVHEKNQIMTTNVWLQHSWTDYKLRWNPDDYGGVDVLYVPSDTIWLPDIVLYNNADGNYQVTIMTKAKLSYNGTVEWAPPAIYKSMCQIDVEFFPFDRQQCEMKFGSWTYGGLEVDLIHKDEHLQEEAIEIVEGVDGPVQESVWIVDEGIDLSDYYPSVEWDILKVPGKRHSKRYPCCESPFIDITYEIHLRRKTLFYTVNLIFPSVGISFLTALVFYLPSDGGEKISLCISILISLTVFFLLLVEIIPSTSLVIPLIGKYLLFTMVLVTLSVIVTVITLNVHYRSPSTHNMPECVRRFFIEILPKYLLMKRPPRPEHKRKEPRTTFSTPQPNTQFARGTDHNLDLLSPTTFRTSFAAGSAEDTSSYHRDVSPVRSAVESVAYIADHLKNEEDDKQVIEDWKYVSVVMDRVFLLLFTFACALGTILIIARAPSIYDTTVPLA
# Sequence (D6MYE9 21-498): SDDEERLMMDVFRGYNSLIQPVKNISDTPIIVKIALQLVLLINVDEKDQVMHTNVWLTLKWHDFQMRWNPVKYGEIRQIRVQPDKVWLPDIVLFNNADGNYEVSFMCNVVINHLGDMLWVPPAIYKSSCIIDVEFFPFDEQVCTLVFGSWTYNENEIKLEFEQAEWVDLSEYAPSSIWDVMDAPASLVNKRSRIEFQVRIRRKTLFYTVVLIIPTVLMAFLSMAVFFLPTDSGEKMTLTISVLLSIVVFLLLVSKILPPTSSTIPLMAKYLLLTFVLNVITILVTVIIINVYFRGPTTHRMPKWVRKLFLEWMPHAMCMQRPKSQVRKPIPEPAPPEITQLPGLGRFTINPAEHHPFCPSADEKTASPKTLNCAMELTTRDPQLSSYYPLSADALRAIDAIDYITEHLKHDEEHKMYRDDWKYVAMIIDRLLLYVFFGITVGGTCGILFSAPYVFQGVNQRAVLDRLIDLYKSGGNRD
# METHOD SUMMARY: Two-electrode voltage-clamp on Xenopus oocytes expressing Hco-L-AChR-2
pEC50: −log10 of the molar value.

| COMPOUND | pEC50 |
| --- | --- |
| Cc1ccsc1/C=C/C1=NCCCN1C [Mor, morantel] | 5.49 |

###

// reported Emax at 100 µM per item
# EXPERIMENTAL SYSTEM: Hco-26/27 receptor (Haemonchus contortus, UniProt A9XX30+S4VAP0)
# Sequence (A9XX30 entry or part of it): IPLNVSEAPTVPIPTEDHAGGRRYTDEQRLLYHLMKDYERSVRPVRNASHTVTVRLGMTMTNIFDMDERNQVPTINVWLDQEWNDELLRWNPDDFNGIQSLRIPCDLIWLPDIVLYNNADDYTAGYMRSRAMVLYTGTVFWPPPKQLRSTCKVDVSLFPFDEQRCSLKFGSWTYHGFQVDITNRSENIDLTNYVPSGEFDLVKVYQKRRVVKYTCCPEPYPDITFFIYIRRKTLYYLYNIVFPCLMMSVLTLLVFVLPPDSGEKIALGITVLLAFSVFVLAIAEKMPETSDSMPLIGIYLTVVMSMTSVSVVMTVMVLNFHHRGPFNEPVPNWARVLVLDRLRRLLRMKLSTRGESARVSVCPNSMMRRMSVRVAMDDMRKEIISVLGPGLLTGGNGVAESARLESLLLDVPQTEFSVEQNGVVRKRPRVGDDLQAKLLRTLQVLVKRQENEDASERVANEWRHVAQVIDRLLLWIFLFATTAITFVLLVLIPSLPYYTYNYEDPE
# Sequence (S4VAP0 entry or part of it): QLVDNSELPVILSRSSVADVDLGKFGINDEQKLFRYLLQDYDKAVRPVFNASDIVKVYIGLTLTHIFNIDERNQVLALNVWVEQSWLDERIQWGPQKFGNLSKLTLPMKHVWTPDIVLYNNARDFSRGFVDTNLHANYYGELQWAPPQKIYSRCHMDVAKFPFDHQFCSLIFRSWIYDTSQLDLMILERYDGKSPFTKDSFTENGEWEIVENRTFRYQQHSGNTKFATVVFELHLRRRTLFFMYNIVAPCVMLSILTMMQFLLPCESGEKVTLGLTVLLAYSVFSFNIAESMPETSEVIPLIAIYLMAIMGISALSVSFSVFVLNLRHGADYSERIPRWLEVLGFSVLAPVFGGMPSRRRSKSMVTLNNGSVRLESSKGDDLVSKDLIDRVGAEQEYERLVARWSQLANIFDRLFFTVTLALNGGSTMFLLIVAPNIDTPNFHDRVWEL
# METHOD SUMMARY: cell-based
# CONDITION CONTEXT: read-out: Relative maximal current (Imax) normalized to 100 μM acetylcholine, cRNA ratio 1:1 26/27; 100 μM agonist
Structures can show the parent of a compound that is named as a salt.
VALUE TYPE: Emax at 100 µM

| COMPOUND | RESULT |
| --- | --- |
| c1ccc([C@H]2CN3CCSC3=N2)cc1 [Lev, (-)-tetramisole hydrochloride] | 3.46% |
| C[N+](C)(CCOc1ccccc1)Cc1ccccc1 [Beph, bephenium] | 3.21% |
| Cc1ccsc1/C=C/C1=NCCCN1C [Mor, morantel] | 249% |
| CN1CCCN=C1/C=C/c1cccc(O)c1 [Oxa, oxantel] | 0.95% |
| CN1CCCN=C1/C=C/c1cccs1 [Pyr, pyrantel] | 81% |

###

# EXPERIMENTAL SYSTEM: Hco-26/27 receptor (Haemonchus contortus, UniProt A9XX30+S4VAP0)
# METHOD SUMMARY: cell-based

| MOLECULE | EXPERIMENTAL SYSTEM | EC50 (µM) |
| --- | --- | --- |
| CN1CCCN=C1/C=C/c1cccs1 [Pyr, pyrantel] | Hco-26/27 receptor (Haemonchus contortus, UniProt A9XX30+S4VAP0) | 6.8 |
| Cc1ccsc1/C=C/C1=NCCCN1C [Mor, morantel] | Hco-26/27 receptor (Haemonchus contortus, UniProt A9XX30+S4VAP0) | 29 |
| CC(=O)OCC[N+](C)(C)C [ACh, Acetylcholine chloride] | Hco-26/27 receptor (Haemonchus contortus, UniProt A9XX30+S4VAP0) | 80.1 |

###

# EXPERIMENTAL SYSTEM: Hco-L-AChR-1 (Hco-UNC-38, Hco-UNC-63, Hco-UNC-29.1, Hco-ACR-8) (Haemonchus contortus, UniProt A9XX24+D6MYE9+D6MYF3+D6MYF4)
# Sequence (A9XX24 19-536, one chain of several): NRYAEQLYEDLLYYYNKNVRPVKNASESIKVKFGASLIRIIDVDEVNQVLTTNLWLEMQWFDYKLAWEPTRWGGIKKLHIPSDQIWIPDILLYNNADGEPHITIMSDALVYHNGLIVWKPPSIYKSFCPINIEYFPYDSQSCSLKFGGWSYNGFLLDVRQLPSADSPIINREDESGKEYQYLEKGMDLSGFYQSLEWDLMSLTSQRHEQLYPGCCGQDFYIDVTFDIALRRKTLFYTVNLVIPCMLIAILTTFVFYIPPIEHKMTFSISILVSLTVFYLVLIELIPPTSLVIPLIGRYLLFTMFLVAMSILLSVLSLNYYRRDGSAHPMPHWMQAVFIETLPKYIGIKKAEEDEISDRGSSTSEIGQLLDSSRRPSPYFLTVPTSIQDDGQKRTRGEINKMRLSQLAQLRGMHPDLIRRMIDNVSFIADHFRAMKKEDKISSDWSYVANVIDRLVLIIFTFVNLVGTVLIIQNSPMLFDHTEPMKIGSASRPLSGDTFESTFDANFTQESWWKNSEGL
# METHOD SUMMARY: Two-electrode voltage-clamp on Xenopus oocytes expressing Hco-L-AChR-1
pEC50: −log10 of the molar value.
VALUE TYPE: pEC50

| COMPOUND | VALUE TYPE | MEASURED NUMBER |
| --- | --- | --- |
| Cc1ccsc1/C=C/C1=NCCCN1C [Mor, morantel] | pEC50 | 6.39 |

###

As shown below, each of these compounds has a reported Emax at 100 µM value.
# EXPERIMENTAL SYSTEM: Hco-26/27 receptor (Haemonchus contortus, UniProt A9XX30+S4VAP0)
# METHOD SUMMARY: cell-based
# CONDITION CONTEXT: read-out: Relative maximal current (Imax) normalized to 100 μM acetylcholine, cRNA ratio 1:5 26/27; 100 μM agonist
Where a name gives a salt, the structure may show the parent alone.

| COMPOUND | UNIT INFO | Emax at 100 µM |
| --- | --- | --- |
| c1ccc([C@H]2CN3CCSC3=N2)cc1 [Lev, (-)-tetramisole hydrochloride] | % | 4.18 |
| Cc1ccsc1/C=C/C1=NCCCN1C | % | 137 |
| C[N+](C)(CCOc1ccccc1)Cc1ccccc1 | % | 2.26 |
| CN1CCCN=C1/C=C/c1cccs1 | % | 83.1 |

###

# EXPERIMENTAL SYSTEM: Peq-26/27 receptor (Parascaris equorum, UniProt A0A0U2ES47+A0A0U2ES58)
# Sequence (A0A0U2ES58 entry or part of it): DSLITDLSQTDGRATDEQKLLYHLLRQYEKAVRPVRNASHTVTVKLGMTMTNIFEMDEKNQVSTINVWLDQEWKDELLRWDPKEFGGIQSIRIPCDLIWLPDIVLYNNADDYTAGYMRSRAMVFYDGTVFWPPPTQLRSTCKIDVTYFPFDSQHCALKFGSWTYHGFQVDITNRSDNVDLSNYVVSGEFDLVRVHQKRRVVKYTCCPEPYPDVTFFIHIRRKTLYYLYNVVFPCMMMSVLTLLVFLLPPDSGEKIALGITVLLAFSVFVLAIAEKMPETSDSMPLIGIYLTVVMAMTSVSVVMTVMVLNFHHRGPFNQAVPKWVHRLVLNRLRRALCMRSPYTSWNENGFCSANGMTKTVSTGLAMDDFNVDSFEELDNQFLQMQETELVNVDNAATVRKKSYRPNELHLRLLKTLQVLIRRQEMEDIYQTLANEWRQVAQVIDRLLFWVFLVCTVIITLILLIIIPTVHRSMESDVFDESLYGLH
# Sequence (A0A0U2ES47 entry or part of it): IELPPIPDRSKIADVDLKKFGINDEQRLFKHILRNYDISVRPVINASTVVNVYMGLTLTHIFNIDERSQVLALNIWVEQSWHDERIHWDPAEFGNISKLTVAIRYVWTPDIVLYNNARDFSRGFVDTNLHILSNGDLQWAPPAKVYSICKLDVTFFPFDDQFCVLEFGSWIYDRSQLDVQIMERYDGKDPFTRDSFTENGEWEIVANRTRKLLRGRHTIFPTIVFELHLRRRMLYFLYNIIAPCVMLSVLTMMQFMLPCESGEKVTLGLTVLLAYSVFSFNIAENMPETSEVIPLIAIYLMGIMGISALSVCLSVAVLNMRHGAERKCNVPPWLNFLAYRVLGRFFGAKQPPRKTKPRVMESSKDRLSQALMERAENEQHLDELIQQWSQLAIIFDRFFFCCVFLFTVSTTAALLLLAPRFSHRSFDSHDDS
# METHOD SUMMARY: cell-based
VALUE TYPE: EC50 (µM)

| COMPOUND | UNIT INFO | MEASURED NUMBER |
| --- | --- | --- |
| CC(=O)OCC[N+](C)(C)C [ACh, Acetylcholine chloride] | µM | 34.9 |
